Measured values drawn from the Human Domainome abundance scans (Beltran et al. 2025) for this set.

B1: Kinesin-like protein KIF16B, residues 1213 to 1273; numbered along this chain, Q96L93 (parent)
chain: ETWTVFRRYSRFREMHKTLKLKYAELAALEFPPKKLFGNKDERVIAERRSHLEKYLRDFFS

# Variants of: B1
# test.name: abundance fitness (aPCA) (normalised: wild type 0, dead -1); higher = more abundant; growth selection in yeast, the domain comes from the species named
# run.parameters: Homo sapiens
# label = met if abundance fitness >= -0.3 else not met

variant.descriptor: W3E
classification: met
//
variant.descriptor: L29F
classification: met
//
variant.descriptor: H16R
classification: met
//
variant.descriptor: E42H
classification: not met
//
variant.descriptor: A27C
classification: met
//
variant.descriptor: L26F
classification: met
//
variant.descriptor: L56M
classification: met
//
variant.descriptor: Y55H
classification: met
//
variant.descriptor: K17R
classification: met
//
variant.descriptor: R13K
classification: met
//
variant.descriptor: I45A
classification: met
//
variant.descriptor: A27R
classification: met
//
variant.descriptor: P33Y
classification: not met
//
variant.descriptor: V44K
classification: met
//
variant.descriptor: A28V
classification: not met
//
variant.descriptor: N39T
classification: met
//
variant.descriptor: V5M
classification: met
//
variant.descriptor: F12S
classification: not met
//
variant.descriptor: E14D
classification: met
//
variant.descriptor: F31A
classification: not met
//
variant.descriptor: R48Y
classification: met
//
variant.descriptor: R43V
classification: met
//
variant.descriptor: K20R
classification: met
//
variant.descriptor: H16W
classification: met
//
variant.descriptor: Y23S
classification: not met
//
variant.descriptor: E53G
classification: met
//
variant.descriptor: K35S
classification: met
//
variant.descriptor: L21H
classification: met
//
variant.descriptor: T2E
classification: met
//
variant.descriptor: F59V
classification: met
//
variant.descriptor: E53S
classification: met
//
variant.descriptor: E25H
classification: not met
//
variant.descriptor: F12Y
classification: not met
//
variant.descriptor: A28I
classification: not met
//
variant.descriptor: E42W
classification: met
//
variant.descriptor: L19R
classification: not met
//
variant.descriptor: E14F
classification: not met
//
variant.descriptor: D58W
classification: met
//
variant.descriptor: L21G
classification: met
//
variant.descriptor: T18H
classification: not met
//
variant.descriptor: K54W
classification: not met
//
variant.descriptor: Y55E
classification: not met
//
variant.descriptor: K54T
classification: met
//
variant.descriptor: P32Y
classification: not met
//
variant.descriptor: K22V
classification: met
//
variant.descriptor: L56D
classification: not met
//
variant.descriptor: F60C
classification: met
//
variant.descriptor: T4Q
classification: met
//
variant.descriptor: L36G
classification: not met
//
variant.descriptor: E30K
classification: met
//
variant.descriptor: S61G
classification: met
//
variant.descriptor: R49M
classification: not met
//
variant.descriptor: P32E
classification: not met
//
variant.descriptor: R43L
classification: met
//
variant.descriptor: F59A
classification: not met
//
variant.descriptor: K22E
classification: not met
//
variant.descriptor: E42V
classification: met
//
variant.descriptor: E42G
classification: met
//
variant.descriptor: D41S
classification: met
//
variant.descriptor: R43K
classification: met
//
variant.descriptor: F12W
classification: met
//
variant.descriptor: R8N
classification: not met
//
variant.descriptor: N39R
classification: met
//
variant.descriptor: T2S
classification: not met
//
variant.descriptor: T2Y
classification: not met
//
variant.descriptor: N39I
classification: met
//
variant.descriptor: E47S
classification: met
//
variant.descriptor: K22Q
classification: not met
//
variant.descriptor: E30H
classification: met
//
variant.descriptor: N39W
classification: met
//
variant.descriptor: L29T
classification: met
//
variant.descriptor: R13G
classification: met
//
variant.descriptor: L26E
classification: not met
//
variant.descriptor: D41L
classification: met
//
variant.descriptor: E1L
classification: not met
//
variant.descriptor: R11L
classification: met
//
variant.descriptor: F60A
classification: not met
//
variant.descriptor: K54L
classification: met
//
variant.descriptor: F59W
classification: met
//
variant.descriptor: R11H
classification: met
//
variant.descriptor: E30W
classification: met
//
variant.descriptor: K22S
classification: not met
//
variant.descriptor: A46R
classification: met
//
variant.descriptor: A24E
classification: met
//
variant.descriptor: L26W
classification: met
//
variant.descriptor: Y23A
classification: met
//
variant.descriptor: F59L
classification: met
//
variant.descriptor: F37S
classification: not met
